The values you see were collected from patent US10723711B2.

- Measurement Target: human recombinant Monoacylglycerol Lipase (Homo sapiens, UniProt Q99685)
- Sequence (Q99685 1-303): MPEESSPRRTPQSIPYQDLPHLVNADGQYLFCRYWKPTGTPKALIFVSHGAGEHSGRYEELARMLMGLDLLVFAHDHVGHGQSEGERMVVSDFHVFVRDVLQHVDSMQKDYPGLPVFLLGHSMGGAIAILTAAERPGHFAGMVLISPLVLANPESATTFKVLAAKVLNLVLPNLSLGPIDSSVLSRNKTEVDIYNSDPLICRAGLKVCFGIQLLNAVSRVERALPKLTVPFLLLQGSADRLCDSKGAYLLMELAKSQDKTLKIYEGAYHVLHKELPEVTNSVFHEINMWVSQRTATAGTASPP
- Assay Method Text: MAGL inhibition enzymatic assay, fluorogenic substrate 7-HCA, IC50 at T=0 min or after 30 minute incubation (T=30 min)
- Format: biochemical
- Condition Context: T = 30 min (30 minute incubation); geometric mean of 2-4 determinations unless otherwise indicated; read-out: MAGL (T = 30 min) IC50
Where a name gives a salt, the structure may show the parent alone.
Observable: IC50 (nM)

Solved entries (count: 3):
IN: For the molecule O=C(O[C@H](CO)C(F)(F)F)N1CCC2(CC1)CN(S(=O)(=O)c1ccc(F)c(F)c1)CCO2 , what IC50 is on record?
OUT: 5

IN: For the molecule COc1ccc(-n2ccc([C@H]3[C@@H]4CN(C(=O)O[C@H](CO)C(F)(F)F)C[C@@H]43)n2)cn1 , what IC50 is on record?
OUT: 11

IN: For the molecule O=C(O[C@H](CO)C(F)(F)F)N1CCC2(CC1)CN(Cc1ccc(F)cc1)CCO2 , what IC50 is on record?
OUT: 32

(I) O=C(O[C@H](CO)C(F)(F)F)N1CCC2(CC1)CCN(C(=O)C1CCC(F)(F)CC1)C2
(II) CN(CC1CCN(C(=O)O[C@H](CO)C(F)(F)F)CC1)S(=O)(=O)c1ccc(F)cc1
(III) CN([C@H]1COC2(CCN(C(=O)O[C@H](COP(=O)(O)O)C(F)(F)F)CC2)C1)S(=O)(=O)c1ccccc1 [Example 30, phosphate, disodium salt]
IN: Put the items in sequence by IC50, from largest down. API: response body holds the labels in the requested order.
OUT: III, I, II

###

Measured MAGL kinact/KI by item
- Measurement Target: human recombinant Monoacylglycerol Lipase (Homo sapiens, UniProt Q99685)
- Assay Method Text: MAGL inactivation, enzyme progress curves, kinact/KI
- Assay type: biochemical
- Condition Context: from enzyme progress curves, T = 0 min protocol; geometric mean of 2-4 determinations unless otherwise indicated

IN: For the molecule CN(C(=O)CC1CCC1)[C@H]1COC2(CCN(C(=O)O[C@H](CO)C(F)(F)F)CC2)C1 [Example 143] , what MAGL kinact/KI is on record?
OUT: 2585 1/s per M

###

Measured IC50 by item
- Measurement Target: human recombinant FAAH (Homo sapiens, UniProt O00519)
- Sequence (O00519 1-579): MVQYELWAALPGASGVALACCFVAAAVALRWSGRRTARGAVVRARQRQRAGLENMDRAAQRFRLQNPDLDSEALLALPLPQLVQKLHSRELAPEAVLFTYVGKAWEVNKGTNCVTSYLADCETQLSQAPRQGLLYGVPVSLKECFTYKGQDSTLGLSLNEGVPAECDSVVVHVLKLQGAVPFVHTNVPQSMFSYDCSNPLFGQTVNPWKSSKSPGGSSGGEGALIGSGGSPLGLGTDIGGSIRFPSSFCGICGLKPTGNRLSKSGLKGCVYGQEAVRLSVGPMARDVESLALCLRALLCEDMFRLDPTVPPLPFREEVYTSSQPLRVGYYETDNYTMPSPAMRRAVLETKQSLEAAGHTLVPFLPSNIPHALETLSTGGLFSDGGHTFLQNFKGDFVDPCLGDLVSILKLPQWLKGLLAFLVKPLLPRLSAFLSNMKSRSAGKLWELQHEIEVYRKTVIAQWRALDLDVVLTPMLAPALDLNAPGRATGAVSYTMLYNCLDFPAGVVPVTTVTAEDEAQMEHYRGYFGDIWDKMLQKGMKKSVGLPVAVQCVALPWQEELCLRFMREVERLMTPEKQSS
- Assay Method Text: FAAH inhibition enzymatic assay, fluorescent substrate Arachidonoyl-AMC, 30 minute incubation
- Condition Context: T = 30 min (30 minute incubation); geometric mean of 2-4 determinations unless otherwise indicated

Solved entries (count: 5):
IN: State its IC50 on human recombinant FAAH (Homo sapiens, UniProt O00519): C#Cc1cccc(S(=O)(=O)N2CCOC3(CCN(C(=O)O[C@H](CO)C(F)(F)F)CC3)C2)c1 [Example 79]
OUT: 10 µM

IN: State its IC50 on human recombinant FAAH (Homo sapiens, UniProt O00519): O=C(O[C@H](CO)C(F)(F)F)N1CCC2(CC1)CCN(C(=O)C1CCCC1)C2 [Example 124]
OUT: > 30 µM

IN: State its IC50 on human recombinant FAAH (Homo sapiens, UniProt O00519): CN(C(=O)c1cccc(F)c1)[C@H]1COC2(CCN(C(=O)O[C@H](CO)C(F)(F)F)CC2)C1 [Example 141]
OUT: > 30 µM

IN: State its IC50 on human recombinant FAAH (Homo sapiens, UniProt O00519): O=C(O[C@H](CO)C(F)(F)F)N1CCC(Oc2ccc(C3CC3)cn2)CC1 [Example 10]
OUT: > 30 µM

IN: State its IC50 on human recombinant FAAH (Homo sapiens, UniProt O00519): Cc1ccc(S(=O)(=O)N2CCOC3(CCN(C(=O)O[C@H](CO)C(F)(F)F)CC3)C2)cc1F [Example 73]
OUT: > 30 µM

Others:
IN: State its IC50 on human recombinant FAAH (Homo sapiens, UniProt O00519): O=C(O[C@H](CO)C(F)(F)F)N1CCC2(CC1)CC(n1cccn1)CO2 (single isomer, unassigned) [Example 103]
OUT: > 30 µM

IN: State its IC50 on human recombinant FAAH (Homo sapiens, UniProt O00519): O=C(O[C@H](CO)C(F)(F)F)N1CCC2(CC1)CN(S(=O)(=O)c1ccc(F)cc1)CCO2 [Example 6]
OUT: > 30 µM

IN: State its IC50 on human recombinant FAAH (Homo sapiens, UniProt O00519): O=C(O[C@H](CO)C(F)(F)F)N1CCC(c2ccn(-c3ccc(F)cc3)n2)CC1 [Example 2]
OUT: 1.14 µM
